target: PI3K (Homo sapiens, UniProt P42336); assay: Fluorescence polarization assay for PI3K; type: biochemical; conditions: PI3Kα; read-out: PI3Kα IC50;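 also: PI3K kinase reaction on PIP2 with ATP, 30-60 min, product sensed by GST-GRP with red probe in fluorescence polarization (mP), controls without enzyme and at zero time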
Sequence (P42336 whole entry): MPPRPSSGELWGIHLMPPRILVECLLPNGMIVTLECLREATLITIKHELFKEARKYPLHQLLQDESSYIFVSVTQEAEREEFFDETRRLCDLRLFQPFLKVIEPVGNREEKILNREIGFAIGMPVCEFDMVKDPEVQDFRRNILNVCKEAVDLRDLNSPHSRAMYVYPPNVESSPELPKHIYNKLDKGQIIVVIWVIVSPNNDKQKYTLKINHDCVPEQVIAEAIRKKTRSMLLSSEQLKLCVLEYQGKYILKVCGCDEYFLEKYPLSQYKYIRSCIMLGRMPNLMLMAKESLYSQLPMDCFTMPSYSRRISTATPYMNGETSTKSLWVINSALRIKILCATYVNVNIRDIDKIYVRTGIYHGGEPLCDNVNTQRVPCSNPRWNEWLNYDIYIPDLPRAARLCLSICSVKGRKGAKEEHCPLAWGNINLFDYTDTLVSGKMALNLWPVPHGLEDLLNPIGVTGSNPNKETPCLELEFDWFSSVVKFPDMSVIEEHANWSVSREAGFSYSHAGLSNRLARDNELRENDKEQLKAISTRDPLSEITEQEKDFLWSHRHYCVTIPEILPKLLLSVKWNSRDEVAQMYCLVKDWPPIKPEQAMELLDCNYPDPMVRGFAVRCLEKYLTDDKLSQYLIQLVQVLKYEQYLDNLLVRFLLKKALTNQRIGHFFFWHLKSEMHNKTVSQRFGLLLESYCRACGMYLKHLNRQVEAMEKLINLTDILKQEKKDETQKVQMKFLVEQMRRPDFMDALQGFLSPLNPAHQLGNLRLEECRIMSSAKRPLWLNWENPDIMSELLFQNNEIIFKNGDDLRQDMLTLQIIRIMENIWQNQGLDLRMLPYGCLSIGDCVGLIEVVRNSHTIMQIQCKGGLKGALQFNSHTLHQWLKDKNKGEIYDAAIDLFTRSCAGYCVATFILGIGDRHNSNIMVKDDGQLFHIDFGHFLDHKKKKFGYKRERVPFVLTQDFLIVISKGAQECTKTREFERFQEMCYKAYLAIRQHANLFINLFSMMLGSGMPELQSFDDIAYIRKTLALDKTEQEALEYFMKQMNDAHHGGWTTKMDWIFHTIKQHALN
Sequence (P27986 whole entry partner): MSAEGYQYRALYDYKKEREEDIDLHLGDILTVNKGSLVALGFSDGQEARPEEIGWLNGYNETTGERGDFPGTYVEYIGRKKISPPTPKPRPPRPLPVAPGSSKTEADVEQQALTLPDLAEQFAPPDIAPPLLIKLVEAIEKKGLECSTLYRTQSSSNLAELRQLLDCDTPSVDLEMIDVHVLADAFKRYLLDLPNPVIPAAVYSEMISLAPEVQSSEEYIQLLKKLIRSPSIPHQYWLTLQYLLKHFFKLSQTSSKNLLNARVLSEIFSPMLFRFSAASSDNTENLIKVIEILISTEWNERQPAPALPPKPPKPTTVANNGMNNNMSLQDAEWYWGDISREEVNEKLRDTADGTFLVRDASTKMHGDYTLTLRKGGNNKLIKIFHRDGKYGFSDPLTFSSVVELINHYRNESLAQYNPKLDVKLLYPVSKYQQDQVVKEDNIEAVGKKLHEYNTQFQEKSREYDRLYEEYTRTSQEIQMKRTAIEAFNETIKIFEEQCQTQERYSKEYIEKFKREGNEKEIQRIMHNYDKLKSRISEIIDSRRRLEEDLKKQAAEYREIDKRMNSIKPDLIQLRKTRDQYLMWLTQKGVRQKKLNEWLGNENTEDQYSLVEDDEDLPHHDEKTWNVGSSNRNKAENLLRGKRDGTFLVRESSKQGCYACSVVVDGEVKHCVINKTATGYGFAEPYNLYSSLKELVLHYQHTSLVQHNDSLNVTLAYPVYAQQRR
pIC50: −log10 of the molar value.
recorded_endpoint: pIC50

Illustrative cases are given below, each with its answer.
{"columns": ["compound", "pIC50"],
 "data": [
  ["COC(=O)Nc1ccc(-c2nc(N3CCOCC3)c3cnn(C4CCN(C(=O)c5cccnc5)CC4)c3n2)cc1 [Example 213]", 6.29],
  ["CCSC(=O)N1CCC(n2ncc3c(N4CCOCC4)nc(-c4ccc(NC(=O)OC)cc4)nc32)CC1 [Compound 807]", 5.35],
  ["CN(C)CC(=O)Nc1ccc(-c2nc(N3CCOCC3)c3cn[nH]c3n2)cc1 [Compound 958]", 5.64],
  ["N#CNC(=O)Nc1ccc(-c2nc(N3CCOCC3)c3cnn(C4CCN(Cc5cccnc5)CC4)c3n2)cc1 [Example 409]", 6.44],
  ["C=CCNC(=O)Nc1ccc(-c2nc(N3CCOCC3)c3cnn(C4CCN(Cc5ccccc5)CC4)c3n2)cc1 [Example 263]", 6.57]
]}

(a) CC(C)OC(=O)N1CCC(n2ncc3c(N4CCOCC4)nc(-c4ccc(N)cc4)nc32)CC1 [Compound 830]
(b) O=C(NCCO)Nc1ccc(-c2nc(N3CCOCC3)c3cnn(C4CCN(C(=O)c5ccccc5)CC4)c3n2)cc1 [Example 385]
(c) O=C(O)CCC(=O)Nc1ccc(-c2nc(N3CCOCC3)c3cnn(C4CCN(Cc5ccccc5)CC4)c3n2)cc1 [Compound 81]
(d) COC(=O)Nc1ccc(-c2nc(N3CCOCC3)c3cn[nH]c3n2)cc1 [Compound 279]
Query: Sort (4 compounds) by pIC50: min first. Provide your answer as the labels ordered per the instruction.
Response: a, c, d, b

(I) CNC(=O)Nc1ccc(-c2nc(N3CCOCC3)c3cnn(C4CCN(C(=O)c5ccncc5)CC4)c3n2)cc1 [Compound 661]
(II) CCONC(=O)Nc1ccc(-c2nc(N3CCOCC3)c3cnn(C4CCN(Cc5ccccc5)CC4)c3n2)cc1 [Compound 533]
Query: Please let me know which one, I or II , has a lower measured pIC50 value. # respond with the chosen item's label
Response: II

(I) CNC(=O)Nc1ccc(-c2nc(N3CCOCC3)c3cnn(C4CCN(Cc5cccnc5)CC4)c3n2)cc1F [Example 350]
(II) Nc1ccnc(-c2nc(N3CCOCC3)c3cnn(-c4ccccc4)c3n2)c1 [Compound 437]
Query: API: POST /compare with I and II ; response names the item with higher pIC50. # respond with the chosen item's label
Response: I
(I: 6.61, II: 5.84)

(I) CCNC(=O)Nc1ccc(-c2nc(N3CCOCC3)c3cnn(C4CCN(C(=O)c5ccccc5)CC4)c3n2)cc1 [Compound 626]
(II) CNC(=O)Nc1ccc(-c2nc(N3CCOCC3)c3cnn(C4CCN(Cc5cccc(C)c5)CC4)c3n2)cc1 [Example 430]
(III) CCNC(=O)Nc1ccc(-c2nc(N3CCOCC3)c3cnn(C4CCN(Cc5cccnc5)CC4)c3n2)cc1 [Compound 563]
Query: Sort (3 compounds) by pIC50: min first. Provide your answer as the labels ordered per the instruction.
Response: I, III, II
